- tested_on: EGFR L858R kinase domain (Homo sapiens, UniProt P00533, L858R)
- Construct: The EGFR kinase domain (residues 696-1022) was cloned into pTriEx; 6xHis (N, cleaved yes); GST (N, cleaved yes); made in house; host or cells: SF9 insect cells (baculovirus)
- Sequence (P00533 696-1022 L858R): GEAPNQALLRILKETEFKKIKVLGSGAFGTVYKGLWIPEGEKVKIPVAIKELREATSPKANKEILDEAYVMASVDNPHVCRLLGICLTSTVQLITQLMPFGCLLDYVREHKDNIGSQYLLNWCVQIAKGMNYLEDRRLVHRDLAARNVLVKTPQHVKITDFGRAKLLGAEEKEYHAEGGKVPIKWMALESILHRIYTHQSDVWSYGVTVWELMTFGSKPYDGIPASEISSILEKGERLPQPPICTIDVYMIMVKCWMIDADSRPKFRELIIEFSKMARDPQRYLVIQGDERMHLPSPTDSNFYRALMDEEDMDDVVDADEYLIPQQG
- assay_protocol: HTRF-based activity assay
- Assay type: biochemical
- protocol_conditions: 100 μM ATP, enzyme 0.1 nM, read-out: Biochemical EGFR IC50, LR
- Description: Protein expression and purification. The EGFR kinase domain (residues 696-1022) was cloned into pTriEx with an N-terminal 6×His-glutathione S-transferase (GST) fusion tag followed by a TEV protease cleavage site. […] HTRF Assays. Biochemical assays for EGFR domains were carried out using a homogeneous time-resolved fluorescence (HTRF) KinEASE-TK (Cisbio) assay, as described previously. […]
Task for the reader: assign each of the following compounds its reported pIC50.
On this scale, pIC50 is minus log10 of a concentration expressed in M (mol/L).

// query // map CCc1nc(-c2cccc(NC(=O)c3cccc4c3NC(=O)c3ccccc3N4)c2)c(-c2ccnc(NC(C)=O)c2)[nH]1 to recorded pIC50 (system: EGFR L858R kinase domain (Homo sapiens, UniProt P00533, L858R))
// result 8.92

// query Similarly, CCc1nc(-c2cccc(NC(=O)c3cccc4c3NC(=O)c3ccccc3N4)c2)c(-c2ccnc(Nc3ccccc3)c2)[nH]1 ?
// result 8.96

// query Similarly, CSc1nc(-c2cccc(CN3C(=O)c4ccccc4Nc4ccc(F)cc43)c2)c(-c2ccnc(NC(C)=O)c2)[nH]1 ?
// result 5.89

// query Similarly, CSc1nc(-c2cccc(NC(=O)c3cccc4c3NC(=O)c3ccccc3N4)c2)c(-c2ccnc(NC(C)=O)c2)[nH]1 ?
// result 8.82

* * *

- tested_on: EGFR L858R/T790M/C797S kinase domain (Homo sapiens, UniProt P00533, C797S/L858R/T790M)
- Construct: The EGFR kinase domain (residues 696-1022) was cloned into pTriEx; 6xHis (N, cleaved yes); GST (N, cleaved yes); made in house; host or cells: SF9 insect cells (baculovirus)
- Sequence (P00533 696-1022 T790M/C797S/L858R): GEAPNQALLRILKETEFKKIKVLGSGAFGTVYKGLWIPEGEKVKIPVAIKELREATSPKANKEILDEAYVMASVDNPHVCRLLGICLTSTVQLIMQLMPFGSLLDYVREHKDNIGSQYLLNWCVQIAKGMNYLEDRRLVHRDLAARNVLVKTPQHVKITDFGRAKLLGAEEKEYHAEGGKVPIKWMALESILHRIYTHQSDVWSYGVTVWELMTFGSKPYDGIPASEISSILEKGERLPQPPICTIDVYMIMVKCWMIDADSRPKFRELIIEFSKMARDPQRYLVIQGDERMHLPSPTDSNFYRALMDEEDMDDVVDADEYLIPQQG
- assay_protocol: HTRF-based activity assay
- Format: biochemical
- protocol_conditions: read-out: IC50 values, LRTMCS
pIC50: −log10 of the molar value.
parameter_measured: pIC50

// query Recorded pIC50 of CSc1nc(-c2cccc(CN3C(=O)c4ccccc4Nc4ccc(F)cc43)c2)c(-c2ccnc(NC(C)=O)c2)[nH]1 , please.
// result < 6.00

* * *

- tested_on: EGFR L858R kinase domain (Homo sapiens, UniProt P00533, L858R)
- Construct: The EGFR kinase domain (residues 696-1022) was cloned into pTriEx; 6xHis (N, cleaved yes); GST (N, cleaved yes); made in house; host or cells: SF9 insect cells (baculovirus)
- assay_protocol: HTRF-based activity assay
- Assay type: biochemical
- protocol_conditions: read-out: IC50 values, LR
pIC50: −log10 of the molar value.
parameter_measured: pIC50

// query Recorded pIC50 of CSc1nc(-c2cccc(CN3C(=O)c4ccccc4Nc4ccc(F)cc43)c2)c(-c2ccnc(NC(C)=O)c2)[nH]1 , please.
// result < 6.00

* * *

- tested_on: EGFR(L858R) (Homo sapiens, UniProt P00533, L858R)
- Sequence (P00533 669-1210 L858R): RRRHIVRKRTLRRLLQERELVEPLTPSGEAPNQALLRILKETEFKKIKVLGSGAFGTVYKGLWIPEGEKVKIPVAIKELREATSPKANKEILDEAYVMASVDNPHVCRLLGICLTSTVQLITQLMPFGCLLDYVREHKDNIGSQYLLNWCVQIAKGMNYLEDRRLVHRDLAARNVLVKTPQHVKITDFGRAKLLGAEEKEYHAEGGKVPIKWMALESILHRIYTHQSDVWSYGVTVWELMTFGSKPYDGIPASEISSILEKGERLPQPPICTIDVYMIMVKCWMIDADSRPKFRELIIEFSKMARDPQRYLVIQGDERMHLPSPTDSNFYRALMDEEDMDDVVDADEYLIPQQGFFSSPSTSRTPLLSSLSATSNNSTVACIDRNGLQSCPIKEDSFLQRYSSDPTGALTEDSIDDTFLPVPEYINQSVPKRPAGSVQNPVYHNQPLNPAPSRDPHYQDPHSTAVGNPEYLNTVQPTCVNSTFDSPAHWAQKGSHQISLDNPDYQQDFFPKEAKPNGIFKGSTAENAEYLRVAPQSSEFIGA
- assay_protocol: Time-dependent kinase inhibition assay (Sox-based substrate)
- protocol_conditions: read-out: KI, LR
parameter_measured: pKi
On this scale, pKi is minus log10 of a concentration expressed in M (mol/L).

// query Recorded pKi of C=CC(=O)Nc1ccc(OC)c(Nc2cc(-c3[nH]c(CC)nc3-c3cccc(NC(=O)c4cccc5c4NC(=O)c4ccccc4N5)c3)ccn2)c1 , please.
// result 6.21
